- Target: Integrin alpha-IIb/beta-3 (Homo sapiens, UniProt P05106+P08514)
- Sequence (P05106 27-788 limits assumed): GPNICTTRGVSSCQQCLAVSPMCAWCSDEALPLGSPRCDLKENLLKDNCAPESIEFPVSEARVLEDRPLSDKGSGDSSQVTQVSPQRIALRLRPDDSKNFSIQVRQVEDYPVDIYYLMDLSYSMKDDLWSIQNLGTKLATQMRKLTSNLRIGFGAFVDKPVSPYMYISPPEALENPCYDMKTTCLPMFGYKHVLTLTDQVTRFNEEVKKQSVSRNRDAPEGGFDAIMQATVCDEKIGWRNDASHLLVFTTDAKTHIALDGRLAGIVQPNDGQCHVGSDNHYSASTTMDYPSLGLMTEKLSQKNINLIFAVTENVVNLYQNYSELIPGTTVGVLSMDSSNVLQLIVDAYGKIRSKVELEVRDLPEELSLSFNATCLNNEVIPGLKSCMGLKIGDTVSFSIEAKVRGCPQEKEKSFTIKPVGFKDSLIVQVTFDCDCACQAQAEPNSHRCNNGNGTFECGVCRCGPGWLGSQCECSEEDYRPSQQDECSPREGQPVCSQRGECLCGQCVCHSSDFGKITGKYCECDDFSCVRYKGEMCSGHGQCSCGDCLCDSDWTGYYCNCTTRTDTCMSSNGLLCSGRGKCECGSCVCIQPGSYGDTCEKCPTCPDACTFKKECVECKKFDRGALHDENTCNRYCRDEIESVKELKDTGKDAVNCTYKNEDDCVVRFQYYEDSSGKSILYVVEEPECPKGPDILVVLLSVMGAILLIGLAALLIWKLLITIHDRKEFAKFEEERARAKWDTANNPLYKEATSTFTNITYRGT
- Sequence (P08514 32-887 limits assumed): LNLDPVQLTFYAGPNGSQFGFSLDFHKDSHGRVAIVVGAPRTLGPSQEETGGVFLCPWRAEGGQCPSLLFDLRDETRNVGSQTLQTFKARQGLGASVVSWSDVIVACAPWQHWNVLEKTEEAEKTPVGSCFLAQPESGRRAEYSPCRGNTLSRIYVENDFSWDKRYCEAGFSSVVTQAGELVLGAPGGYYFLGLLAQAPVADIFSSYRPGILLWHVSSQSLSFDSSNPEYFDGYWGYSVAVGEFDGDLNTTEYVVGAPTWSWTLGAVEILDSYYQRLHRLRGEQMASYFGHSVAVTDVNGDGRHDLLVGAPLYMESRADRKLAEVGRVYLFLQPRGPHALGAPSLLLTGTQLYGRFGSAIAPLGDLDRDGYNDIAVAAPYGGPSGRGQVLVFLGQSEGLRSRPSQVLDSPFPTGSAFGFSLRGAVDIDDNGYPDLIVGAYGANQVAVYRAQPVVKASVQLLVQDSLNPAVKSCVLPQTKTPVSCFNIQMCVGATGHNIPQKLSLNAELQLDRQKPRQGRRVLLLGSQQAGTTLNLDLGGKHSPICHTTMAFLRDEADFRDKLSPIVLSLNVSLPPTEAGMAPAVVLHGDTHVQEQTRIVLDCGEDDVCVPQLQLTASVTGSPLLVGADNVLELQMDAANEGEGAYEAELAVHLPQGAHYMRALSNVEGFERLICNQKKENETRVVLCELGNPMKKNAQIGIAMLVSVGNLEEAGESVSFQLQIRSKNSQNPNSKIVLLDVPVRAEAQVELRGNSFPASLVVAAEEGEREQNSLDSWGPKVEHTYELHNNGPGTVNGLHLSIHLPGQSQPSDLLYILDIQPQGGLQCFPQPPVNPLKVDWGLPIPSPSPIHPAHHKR
- Sequence (P08514 891-1039 limits assumed): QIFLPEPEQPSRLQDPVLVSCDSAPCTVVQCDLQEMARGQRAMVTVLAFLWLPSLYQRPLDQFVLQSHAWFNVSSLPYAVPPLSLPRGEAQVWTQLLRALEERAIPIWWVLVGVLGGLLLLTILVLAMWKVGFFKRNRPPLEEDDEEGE
- Procedure Summary: Inhibition of binding of fibrinogen to purified human GPIIb-IIIa in ELISA
Reported Property: IC50 (nM)

O=C(O)COC1CCN(C(=O)N2CCC3(CC2)CCN(c2ccncc2)CC3)CC1    210

[a] N=C(N)c1ccc(N2CCC3(CCN(CCC(=O)O)CC3)CC2)cc1
[b] CCCCOC(=O)N[C@@H](CCC(=O)N1CCC2(CC1)CCN(c1ccncc1)CC2)C(=O)O
In: Kindly identify which of a and b has the larger recorded IC50 value. When you have decided, please share the label of that item.
Out: a
(a: 160 nM, b: 4 nM)

* * *

- Species: Homo sapiens
- Procedure Summary: Inhibition of aggregation of ADP-stimulated human platelets
- Format: functional
Reported Property: IC50 (µM)

// solved cases for IC50 follow
N=C(N)c1ccc(C(=O)N2CCC3(CCN(C(=O)CC(=O)O)CC3)CC2)cc1    9.3
Cc1noc(C)c1S(=O)(=O)N[C@@H](CCC(=O)N1CCC2(CC1)CCN(c1ccncc1)CC2)C(=O)O    0.021
N=C(N)c1ccc(C(=O)N2CCC3(CCN(C(=O)CCC(=O)O)CC3)CC2)cc1    13.8
CCCCS(=O)(=O)N[C@@H](CCC(=O)N1CCC2(CC1)CCN(c1ccncc1)CC2)C(=O)O    0.768
N=C(N)c1ccc(C(=O)N2CCC3(CCN(C(=O)CCCCC(=O)O)CC3)CC2)cc1    18.8

[P] O=C(O)CCCCCC(=O)N1CCC2(CC1)CCN(c1ccncc1)CC2
[Q] O=C(O)CC(=O)N1CCC(C(=O)N2CCC3(CC2)CCN(c2ccncc2)CC3)CC1
In: Kindly identify which of P and Q has the larger recorded IC50 value. When you have decided, please share the label of that item.
Out: P

* * *

- Organism: Homo sapiens
- Procedure Summary: Inhibition of aggregation of ADP-stimulated human platelets
- Format: functional
pIC50: −log10 of the molar value.
Reported Property: pIC50

// solved cases for pIC50 follow
Cc1noc(C)c1S(=O)(=O)N[C@@H](CNC(=O)N1CCC2(CC1)CCN(c1ccncc1)CC2)C(=O)O    7.41
O=C(O)COC1CCN(C(=O)N2CCC3(CC2)CCN(c2ccncc2)CC3)CC1    5.58
N=C(N)c1ccc(C(=O)N2CCC3(CCN(C(=O)CCCC(=O)O)CC3)CC2)cc1    4.99
O=C(O)CCCCC(=O)N1CCC2(CC1)CCN(c1ccncc1)CC2    5.34
O=C(O)CCCCCCC(=O)N1CCC2(CC1)CCN(c1ccncc1)CC2    4.75

[1] CCCCOC(=O)N[C@@H](CCC(=O)N1CCC2(CC1)CCN(c1ccncc1)CC2)C(=O)O
[2] Cc1ccc(S(=O)(=O)N[C@@H](CCC(=O)N2CCC3(CC2)CCN(c2ccncc2)CC3)C(=O)O)cc1
In: Kindly identify which of 1 and 2 has the larger recorded pIC50 value. When you have decided, please share the label of that item.
Out: 2

* * *

- Target: Integrin alpha-IIb/beta-3 (Homo sapiens, UniProt P05106+P08514)
- Procedure Summary: Inhibition of binding of fibrinogen to purified human GPIIb-IIIa in ELISA
pIC50: −log10 of the molar value.
Reported Property: pIC50

[a] CCCCS(=O)(=O)N[C@@H](CCC(=O)N1CCC2(CC1)CCN(c1ccncc1)CC2)C(=O)O
[b] O=C(O)CC(=O)N1CCC(C(=O)N2CCC3(CC2)CCN(c2ccncc2)CC3)CC1
[c] O=C(O)CCCCCC(=O)N1CCC2(CC1)CCN(c1ccncc1)CC2
[d] N=C(N)c1ccc(C(=O)N2CCC3(CCN(C(=O)CC(=O)O)CC3)CC2)cc1
In: Order by pIC50, smallest first, the items presented above. Response format: the labels, sorted as the prompt asks.
Out: d, c, b, a

* * *

- Target: Integrin alpha-V/beta-3 (Homo sapiens, UniProt P05106+P06756)
- Sequence (P05106 27-788 limits assumed): as the sequence (P05106 27-788 limits assumed) above
- Sequence (P06756 31-889 limits assumed): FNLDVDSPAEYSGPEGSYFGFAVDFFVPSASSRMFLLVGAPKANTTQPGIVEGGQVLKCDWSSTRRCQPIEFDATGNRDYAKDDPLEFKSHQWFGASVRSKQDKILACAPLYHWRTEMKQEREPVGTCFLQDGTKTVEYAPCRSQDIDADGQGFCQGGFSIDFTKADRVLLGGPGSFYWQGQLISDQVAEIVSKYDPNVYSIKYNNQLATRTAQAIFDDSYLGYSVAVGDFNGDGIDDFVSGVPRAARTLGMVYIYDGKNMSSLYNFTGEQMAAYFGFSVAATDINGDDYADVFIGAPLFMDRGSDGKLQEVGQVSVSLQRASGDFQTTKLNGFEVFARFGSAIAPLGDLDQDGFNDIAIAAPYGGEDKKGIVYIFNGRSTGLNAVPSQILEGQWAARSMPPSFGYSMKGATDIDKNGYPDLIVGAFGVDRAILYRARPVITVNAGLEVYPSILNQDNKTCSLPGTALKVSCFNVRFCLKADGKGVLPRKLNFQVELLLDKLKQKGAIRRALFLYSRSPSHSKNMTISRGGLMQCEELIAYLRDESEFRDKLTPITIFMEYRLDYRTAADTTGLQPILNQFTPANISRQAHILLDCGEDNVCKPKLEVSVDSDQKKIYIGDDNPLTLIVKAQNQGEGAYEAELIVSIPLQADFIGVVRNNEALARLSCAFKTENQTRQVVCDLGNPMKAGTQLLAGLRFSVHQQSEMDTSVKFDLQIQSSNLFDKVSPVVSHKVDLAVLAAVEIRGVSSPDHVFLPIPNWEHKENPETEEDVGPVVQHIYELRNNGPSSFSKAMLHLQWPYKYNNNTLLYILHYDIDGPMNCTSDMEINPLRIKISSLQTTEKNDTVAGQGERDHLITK
- Sequence (P06756 891-1048 limits assumed): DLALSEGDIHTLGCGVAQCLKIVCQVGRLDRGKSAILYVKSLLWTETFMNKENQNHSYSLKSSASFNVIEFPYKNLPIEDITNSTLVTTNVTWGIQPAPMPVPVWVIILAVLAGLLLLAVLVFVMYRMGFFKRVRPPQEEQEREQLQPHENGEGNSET
- Procedure Summary: Inhibitory concentration against alphaV-beta3 integrin
molecules and their reported IC50

O=C(O)CCCC(=O)N1CCC2(CC1)CCN(c1ccncc1)CC2    > 100 µM
Cc1ccc(S(=O)(=O)N[C@@H](CCC(=O)N2CCC3(CC2)CCN(c2ccncc2)CC3)C(=O)O)cc1    > 100 µM

With those in mind, consider the next molecule.
Kindly note the recorded IC50 for O=C(O)CC(=O)N1CCC(C(=O)N2CCC3(CC2)CCN(c2ccncc2)CC3)CC1 , which is > 100 µM

* * *

- Species on record: Homo sapiens
- Procedure Summary: Inhibition of aggregation of ADP-stimulated human platelets
- Format: functional
pIC50: −log10 of the molar value.
Reported Property: pIC50

O=C(O)CCCC(=O)N1CCC2(CC1)CCN(c1ccncc1)CC2    5.29

[a] N=C(N)c1ccc(N2CCC3(CCN(CCC(=O)O)CC3)CC2)cc1
[b] O=C(N[C@@H](CCC(=O)N1CCC2(CC1)CCN(c1ccncc1)CC2)C(=O)O)OCc1ccccc1
In: Looking only at measured pIC50, which entry is lower, a or b ? When you have decided, please share the label of that item.
Out: b
(b: 5.34, a: 5.94)

The reported measurements were obtained from ChEMBL document CHEMBL1134714.
